Data provenance: ChEMBL document CHEMBL5724696

I'd be grateful if you could share measured autophagy induction for these entries.
- System: U2OS
- method: Here: values are normalized to the negative (DMSO; defined as 0% autophagy induction) and positive (250nM Torin1; mTOR inhibitor; defined as maximal inducer of autophagy = 100%) control compounds and represented as % of autophagy induction. […] The impact of autophagy induction on cells is complex and depends on the affected target. As such, the magnitude of a phenotype may not be equally mirrored in the %-value of autophagy induction and vice versa. The dynamics of the induction may indicate the mode of activation: e.g. activation via phosphorylation or a signaling cascade may occur fast, while activation via transcription factors may take considerably longer. […] Of note, treatment concentrations may be sub-optimal for specific compounds, leading to false negative annotations.
- Format: functional, Homo sapiens
- condition_parameters: Compound Concentration 2 uM, Timepoint 12 hours, Culturing Media DMEM, 1 % Penicillin/Streptomycin, 10% Fetal bovin serum Add-On: No, Screening Media Control DMEM, Screening Media Samples DMEM
One number for each entry, in %.

[
  {
    "compound": "N#Cc1c[nH]c2c(C(=O)N3CCN(CCc4ccc(F)cc4)CC3)cccc12",
    "parameter": "autophagy induction",
    "experimental_value": -0.7991
  },
  {
    "compound": "CCCCN(CC)c1nc(C)nc2c1c(C)cn2-c1c(C)cc(C)cc1C.Cl",
    "parameter": "autophagy induction",
    "experimental_value": 10.9121
  },
  {
    "compound": "CCCCC#Cc1nc(NC)c2ncn([C@@H]3O[C@H](CO)[C@@H](O)[C@H]3O)c2n1",
    "parameter": "autophagy induction",
    "experimental_value": -4.8354
  }
]

Provide autophagy induction values for the following items, in order.
1. O=C(O)C1CN(Cc2ccc(OCc3ccc(Cl)c(Cl)c3)cc2)C1
2. Cc1c(OCc2cccc(-c3ccc(C(=O)O)cc3)c2)cc2c(c1C)C(=O)C(C1CCCC1)C2 (stereo unspecified)
3. c1cc(CN2CCCNCCNCCCNCC2)ccc1CN1CCCNCCNCCCNCC1
4. CCCNS(=O)(=O)Nc1ncnc(OCCOc2ncc(Br)cn2)c1-c1ccc(Br)cc1
5. CS(=O)(=O)NC[C@H]1CC[C@H](Nc2nc3c(s2)CCSc2ccccc2-3)CC1

Reply:
1. 2.736
2. 6.511
3. -10.5746
4. 12.0444
5. 8.098
